Origin of the recorded values: ChEMBL document CHEMBL1133626

Listed next: entries and their corresponding Log K.
Target: Corticosteroid-binding globulin (Homo sapiens) (UniProt P08185)
Sequence (P08185 whole entry): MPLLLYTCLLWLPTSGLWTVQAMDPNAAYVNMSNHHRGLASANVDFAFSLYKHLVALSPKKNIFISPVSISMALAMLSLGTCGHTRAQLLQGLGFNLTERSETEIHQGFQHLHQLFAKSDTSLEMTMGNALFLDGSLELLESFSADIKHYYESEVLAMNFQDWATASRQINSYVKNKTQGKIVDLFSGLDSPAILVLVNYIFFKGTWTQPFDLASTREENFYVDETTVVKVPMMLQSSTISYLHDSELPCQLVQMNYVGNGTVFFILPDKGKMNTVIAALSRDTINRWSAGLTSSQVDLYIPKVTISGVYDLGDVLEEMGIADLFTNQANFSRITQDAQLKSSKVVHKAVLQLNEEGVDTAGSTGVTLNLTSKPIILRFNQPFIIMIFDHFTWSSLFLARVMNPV
Assay: Binding affinity to the corticosteroid-binding globulin (CBG) receptor.
Reported Metric: Log K

| Compound | Experimental System | Endpoint Value |
| --- | --- | --- |
| C[C@]12CCC(=O)C=C1CC[C@@H]1[C@@H]2CC[C@]2(C)C(=O)CC[C@@H]12 | Corticosteroid-binding globulin (Homo sapiens) (UniProt P08185) | 5.76 |
| CC(=O)C1[C@H](C)CC2C3CC=C4CC(=O)CCC4(C)C3CCC21C (some centres undefined) | Corticosteroid-binding globulin (Homo sapiens) (UniProt P08185) | 6.25 |
| CC(=O)[C@@]1(O)CC[C@H]2[C@@H]3CC[C@@H]4C[C@H](O)CC[C@]4(C)[C@H]3CC[C@@]21C | Corticosteroid-binding globulin (Homo sapiens) (UniProt P08185) | 5 |
| C[C@]12CC[C@H](O)C[C@@H]1CC[C@@H]1[C@@H]2CC[C@]2(C)[C@@H](O)CC[C@@H]12 | Corticosteroid-binding globulin (Homo sapiens) (UniProt P08185) | 5 |
